Where do these numbers come from? They come from patent US5583142A.

Test: mouse rota-rod test (16 r.p.m.)
Conditions: 50 mg/kg s.c., 15 min after treatment
Text: All products tested to detect their antinociceptive activity had been previously tested by the rota-rod test to determine their maximum utilizable dose in analgesic tests. In fact, by this test it is possible to determine the highest dose of drug not impairing the normal performance of animals in a test that simultaneously evaluates motor coordination, equilibrium, resistance to fatigue, and muscle strength. […] The calculated doses were those used in the two analgesic tests on mice.
Where a name gives a salt, the structure may show the parent alone.
Property measured: rota-rod performance (number of falls in 30 s)
Enter your answer as a number in falls in 30 s; do not include the unit.

# count of solved cases: 3
>>> observed_measurement("CCC(Sc1ccccc1)C(=O)O[C@H]1C[C@H]2CC[C@@H](C1)N2C (stereo partly drawn) [SM-32, 3α-Tropanyl 2-(phenylthio)-butyrate]")
1.8
>>> observed_measurement("CCC(Oc1ccc(Cl)cc1)C(=O)O[C@H]1C[C@H]2CC[C@@H](C1)N2C (stereo partly drawn) [SM-21, 3α-Tropanyl 2-(p-chlorophenoxy)-butyrate]")
2.2
>>> observed_measurement("CC(C(=O)O[C@H]1C[C@H]2CC[C@@H](C1)N2C)c1ccc(Br)cc1 (stereo partly drawn) [PG-9, 3α-Tropanyl 2-(p-bromophenyl)-propionate]")
2.2

# next compound below
INPUT: // returns reported rota-rod performance (number of falls in 30 s) for input CN(C)CCCN1c2ccccc2CCc2ccc(Cl)cc21 [Clomipramine HCl, reference compound]
OUTPUT: 1.8

* * *

assay: mouse rota-rod test (16 r.p.m.); details: 40 mg/kg s.c., 30 min after treatment
Property measured: rota-rod performance (number of falls in 30 s)
Enter your answer as a number in falls in 30 s; do not include the unit.

>>> observed_measurement("CC(C(=O)O[C@H]1C[C@H]2CC[C@@H](C1)N2C)c1ccc(Br)cc1 (stereo partly drawn) [PG-9, 3α-Tropanyl 2-(p-bromophenyl)-propionate]")
0.8
>>> observed_measurement("CCC(Sc1ccccc1)C(=O)O[C@H]1C[C@H]2CC[C@@H](C1)N2C (stereo partly drawn) [SM-32, 3α-Tropanyl 2-(phenylthio)-butyrate]")
1.4
>>> observed_measurement("CCC(Oc1ccc(Cl)cc1)C(=O)O[C@H]1C[C@H]2CC[C@@H](C1)N2C (stereo partly drawn) [SM-21, 3α-Tropanyl 2-(p-chlorophenoxy)-butyrate]")
1.2

# next compound below
INPUT: // returns reported rota-rod performance (number of falls in 30 s) for input CN(C)CCOC(c1ccccc1)c1ccccc1 [Diphenhydramine, reference compound]
OUTPUT: 3.1

* * *

assay: mouse rota-rod test (16 r.p.m.); conditions: 40 mg/kg s.c., 15 min after treatment
Property measured: rota-rod performance (number of falls in 30 s)
Enter your answer as a number in falls in 30 s; do not include the unit.

INPUT: // returns reported rota-rod performance (number of falls in 30 s) for input CCC(Oc1ccc(Cl)cc1)C(=O)O[C@H]1C[C@H]2CC[C@@H](C1)N2C (stereo partly drawn) [SM-21, 3α-Tropanyl 2-(p-chlorophenoxy)-butyrate]
OUTPUT: 1.6

INPUT: // returns reported rota-rod performance (number of falls in 30 s) for input CCC(Sc1ccccc1)C(=O)O[C@H]1C[C@H]2CC[C@@H](C1)N2C (stereo partly drawn) [SM-32, 3α-Tropanyl 2-(phenylthio)-butyrate]
OUTPUT: 1.2

INPUT: // returns reported rota-rod performance (number of falls in 30 s) for input CN(C)CCOC(c1ccccc1)c1ccccc1 [Diphenhydramine, reference compound]
OUTPUT: 4.3

INPUT: // returns reported rota-rod performance (number of falls in 30 s) for input CC(C(=O)O[C@H]1C[C@H]2CC[C@@H](C1)N2C)c1ccc(Br)cc1 (stereo partly drawn) [PG-9, 3α-Tropanyl 2-(p-bromophenyl)-propionate]
OUTPUT: 1.2
